# Protocol Details: Inhibition of His-6-tagged HIV-1 integrase-recombinant flag-tagged LEDGF/p75 (unknown origin) interaction at 100 uM after 1hr by AlphaScreen assay
Attribute Measured: inhibition

# Smiles Record, Attribute Measured, Result
measured = [
    ("COc1ccc2c(c1)c(C(=O)/C=C(\\O)C(=O)O)cn2Cc1ccc(C(F)(F)F)cc1C(F)(F)F", "inhibition", "33%"),
    ("O=C1OCC(C(=O)c2cn(Cc3ccc(-c4ccccc4)cc3)c3ccc(Cl)cc23)=C1O", "inhibition", "80%"),
    ("O=C(O)/C(O)=C/C(=O)c1cn(Cc2ccc(-c3ccccc3)cc2)c2ccc(F)cc12", "inhibition", "72%"),
    ("Cc1cc(C)c(Cn2cc(C(=O)C3=C(O)C(=O)OC3)c3cc(F)ccc32)c(C)c1", "inhibition", "81%"),
    ("O=C1OCC(C(=O)c2cn(Cc3ccc(C(F)(F)F)cc3C(F)(F)F)c3ccc(F)cc23)=C1O", "inhibition", "37%"),
    ("O=C(O)/C(O)=C/C(=O)c1cn(Cc2ccc(-c3ccccc3)cc2)c2ccc(Cl)cc12", "inhibition", "31%"),
    ("O=C(O)/C(O)=C/C(=O)c1cn(Cc2ccc(C(F)(F)F)cc2)c2ccc(F)cc12", "inhibition", "77%"),
    ("Cc1cc(C)cc(Cn2cc(C(=O)C3=C(O)C(=O)OC3)c3cc(Cl)ccc32)c1", "inhibition", "96%"),
    ("COc1ccc2c(c1)c(C(=O)C1=C(O)C(=O)OC1)cn2Cc1c(C)cc(C)cc1C", "inhibition", "82%"),
    ("COc1ccc2c(c1)c(C(=O)/C=C(\\O)C(=O)O)cn2Cc1ccc(-c2ccccc2)cc1", "inhibition", "59%"),
    ("O=C1OCC(C(=O)c2cn(Cc3ccc(C(F)(F)F)cc3)c3ccc(F)cc23)=C1O", "inhibition", "65%"),
    ("O=C(O)/C(O)=C/C(=O)c1cn(Cc2ccc(C(F)(F)F)cc2C(F)(F)F)c2ccc(Cl)cc12", "inhibition", "80%"),
    ("COc1ccc2c(c1)c(C(=O)C1=C(O)C(=O)OC1)cn2Cc1ccc(C(F)(F)F)cc1C(F)(F)F", "inhibition", "61%"),
    ("CC(C)(C)c1ccc(Cn2cc(C(=O)C3=C(O)C(=O)OC3)c3cc(F)ccc32)cc1", "inhibition", "96%"),
    ("Cc1cc(C)cc(Cn2cc(C(=O)/C=C(\\O)C(=O)O)c3cc(F)ccc32)c1", "inhibition", "26%"),
    ("COc1ccc2c(c1)c(C(=O)C1=C(O)C(=O)OC1)cn2Cc1ccc(C(F)(F)F)cc1", "inhibition", "65%"),
]
